Where these numbers come from: ChEMBL document CHEMBL1201862

Estrogen receptor (Homo sapiens): recorded IC50 for assorted compounds;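 further: potency for inhibiting coactivator peptide recruitment to the receptor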
Sequence (P03372 whole entry): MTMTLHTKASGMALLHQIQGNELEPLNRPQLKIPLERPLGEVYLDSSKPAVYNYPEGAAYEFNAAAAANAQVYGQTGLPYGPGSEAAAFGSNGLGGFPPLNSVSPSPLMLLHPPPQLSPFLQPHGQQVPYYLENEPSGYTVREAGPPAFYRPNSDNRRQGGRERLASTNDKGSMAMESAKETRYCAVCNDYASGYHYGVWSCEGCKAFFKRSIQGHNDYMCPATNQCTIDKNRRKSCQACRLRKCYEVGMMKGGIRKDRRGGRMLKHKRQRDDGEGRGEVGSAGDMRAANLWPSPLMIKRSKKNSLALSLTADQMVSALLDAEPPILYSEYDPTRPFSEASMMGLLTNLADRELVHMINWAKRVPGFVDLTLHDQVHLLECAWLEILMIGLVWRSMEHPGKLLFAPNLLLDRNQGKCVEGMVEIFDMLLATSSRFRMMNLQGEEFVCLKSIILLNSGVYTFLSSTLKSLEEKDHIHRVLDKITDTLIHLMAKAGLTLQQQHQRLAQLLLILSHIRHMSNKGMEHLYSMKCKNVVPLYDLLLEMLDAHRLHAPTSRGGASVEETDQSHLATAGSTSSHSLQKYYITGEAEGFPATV
Activity calls are given as the source filed them.

As a guide, the following entries are already answered.
input_smiles | study_target | IC50
CN1Cc2cc(C(=O)c3cc(Cl)cc(CSc4ncccn4)c3O)cnc2NC1=O | Estrogen receptor (Homo sapiens) | > 50 µM (not active)
O=C(Nc1ccc2nn(-c3ccccc3)nc2c1)c1ccc2c(c1)OCO2 | Estrogen receptor (Homo sapiens) | 6.3 µM (active)
Cc1nc2cccc(C(=O)NCc3ccccc3)c2o1 | Estrogen receptor (Homo sapiens) | 48.4 µM (not active)
CCOCC(=O)Nc1cccc(C(=O)OCC)c1 | Estrogen receptor (Homo sapiens) | > 50 µM (not active)

Send back Estrogen receptor (Homo sapiens) IC50 of Brc1ccccc1-c1nnc(CSc2nnnn2-c2ccccc2)o1 only.
> 50 µM (not active)
